# credit: patent US20210047278A1

- measured_target: FBW7^ARG+pCycE (Homo sapiens, UniProt Q969H0, R505L)
- Construct: GST (TEV site and flexible linker) (N, cleaved yes); made in house; host or cells: SF9 insect cells (baculovirus)
- Sequence (Q969H0 64-707 R505L): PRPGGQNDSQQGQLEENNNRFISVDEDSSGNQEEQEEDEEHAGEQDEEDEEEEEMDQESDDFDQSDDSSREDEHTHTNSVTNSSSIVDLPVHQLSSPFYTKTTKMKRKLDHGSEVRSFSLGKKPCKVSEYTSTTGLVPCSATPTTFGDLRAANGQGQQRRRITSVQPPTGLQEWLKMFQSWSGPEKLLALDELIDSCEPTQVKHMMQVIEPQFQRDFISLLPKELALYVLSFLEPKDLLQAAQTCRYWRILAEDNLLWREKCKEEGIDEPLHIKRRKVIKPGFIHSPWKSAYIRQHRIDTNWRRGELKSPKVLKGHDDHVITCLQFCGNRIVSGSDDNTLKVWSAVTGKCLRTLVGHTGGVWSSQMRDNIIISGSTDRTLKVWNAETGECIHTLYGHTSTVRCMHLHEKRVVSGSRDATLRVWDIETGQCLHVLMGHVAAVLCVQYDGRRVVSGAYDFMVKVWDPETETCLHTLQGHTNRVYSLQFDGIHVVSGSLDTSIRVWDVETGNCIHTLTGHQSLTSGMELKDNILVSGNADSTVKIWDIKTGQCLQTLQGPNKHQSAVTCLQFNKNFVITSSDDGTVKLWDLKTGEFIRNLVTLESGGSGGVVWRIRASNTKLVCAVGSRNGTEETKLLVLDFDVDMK
- Sequence (P63208 2-163 partner): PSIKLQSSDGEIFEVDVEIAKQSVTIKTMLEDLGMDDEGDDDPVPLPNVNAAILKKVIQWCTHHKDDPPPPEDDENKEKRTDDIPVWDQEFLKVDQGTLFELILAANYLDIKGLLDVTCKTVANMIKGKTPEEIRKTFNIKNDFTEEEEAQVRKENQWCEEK
- assay_method_text: FBW7^ARG-cyclin E agonist ALPHAscreen (primary PRUN, confirmation CRUN1, dose-response DRUN)
- Type: binding
- condition_parameters: DRUN dose-response, relative to WT-FBW7+pCycE; read-out: FBW7 ACT Averaged Max % Response
- Description: FBW7^ARG refers to a class of loss-of-function mutations of the of FBW7 ubiquitin ligase that target a key phosphate-binding arginine residue in the FBW7 substrate-binding domain. […] ALPHAscreen is a bead-based proximity assay wherein donor beads contain a photosensitizer, phthalocyanine, and acceptor beads contain thioxene, anthracene and rubrenein in sufficient quantities to generate a chemiluminescence/fluorescence reaction (FIG. 4A). […] 6. Read ALPHAscreen on Envision […]
Hi! Could you tag entries with Emax below 8% as MET, and those at or above as NOT MET? Much appreciated.

Exam item: Please let me know if Cc1c(NC(=O)/C(=C\c2ccccc2)NC(=O)c2ccccc2)c(=O)n(-c2ccccc2)n1C [SR-01000422225-1] shows Emax below 8%.
Marked response: MET

Exam item: Please determine if O=C(Nc1ccc2oc(-c3ccc4ccccc4c3)nc2c1)c1cccc(Cl)c1Cl [SR-01000415504-1] is below 8% in terms of Emax.
Marked response: MET

Exam item: Field: below-cutoff. Rule: recorded Emax strictly less than 8%. Subject: CCOC(=O)C1=CN(Cc2ccc(OC)cc2)C=C(C(=O)OCC)C1c1ccccc1OCc1ccccc1 [SR-01000587933-1]
Marked response: NOT MET

Exam item: Report whether reported Emax is lower than 8% (strictly) for CCS(=O)(=O)NCC(c1cccs1)S(=O)(=O)c1ccc(C)cc1 (stereo not drawn) [SR-01000023127-1]
Marked response: NOT MET

Exam item: Hello, I'm reviewing records and need to know if Emax of CCOc1ccc(Br)cc1C1C2=C(CCCC2=O)N(CC(=O)O)C2=C1C(=O)CCC2 [SR-01000476712-1] is below 8%. Could you check?
Marked response: NOT MET

Exam item: Quick check: does COc1ccc(SCC(=O)NNC(=S)Nc2ccccc2)cc1 [SR-01000526835-1] have Emax under 8%?
Marked response: NOT MET

Exam item: Given the entry COc1cccc(/C=N/c2ccc3[nH]ncc3c2)c1O [SR-01000359514-1] , would its reported Emax be below 8%?
Marked response: NOT MET

Exam item: In the record for CC(NC(=O)c1cnc2ccccn12)c1ccc(F)cc1 (stereo not drawn) [SR-01000378746-1] , is Emax less than 8%?
Marked response: MET
